assayed-system: Cytochrome P450 1A2 (Homo sapiens, UniProt P05177)
Sequence (P05177 whole entry): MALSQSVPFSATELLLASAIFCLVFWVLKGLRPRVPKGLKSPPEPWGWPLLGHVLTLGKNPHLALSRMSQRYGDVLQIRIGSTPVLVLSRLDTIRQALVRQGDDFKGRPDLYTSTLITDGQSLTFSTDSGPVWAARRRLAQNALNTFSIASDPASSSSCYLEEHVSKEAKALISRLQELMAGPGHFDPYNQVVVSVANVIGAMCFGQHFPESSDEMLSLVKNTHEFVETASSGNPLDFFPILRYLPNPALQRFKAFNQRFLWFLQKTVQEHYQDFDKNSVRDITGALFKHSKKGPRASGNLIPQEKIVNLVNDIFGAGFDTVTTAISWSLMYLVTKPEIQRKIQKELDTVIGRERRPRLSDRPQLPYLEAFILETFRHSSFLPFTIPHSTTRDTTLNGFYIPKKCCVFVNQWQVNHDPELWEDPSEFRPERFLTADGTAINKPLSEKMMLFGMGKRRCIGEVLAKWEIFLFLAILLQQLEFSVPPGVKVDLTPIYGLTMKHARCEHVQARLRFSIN
assay-info: Inhibition of human recombinant CYP1A2
observable: pIC50
Answers are plain numbers, as −log10 of the molar value.

*Q* Any idea what pIC50 came out for Cc1ccc2c(N3CCN(CCc4cccc(N5CCNC5=O)c4)CC3)cccc2n1 on Cytochrome P450 1A2 (Homo sapiens, UniProt P05177)?
*A* 4.02

---

assayed-system: UniProt P08908
Sequence (P08908 whole entry): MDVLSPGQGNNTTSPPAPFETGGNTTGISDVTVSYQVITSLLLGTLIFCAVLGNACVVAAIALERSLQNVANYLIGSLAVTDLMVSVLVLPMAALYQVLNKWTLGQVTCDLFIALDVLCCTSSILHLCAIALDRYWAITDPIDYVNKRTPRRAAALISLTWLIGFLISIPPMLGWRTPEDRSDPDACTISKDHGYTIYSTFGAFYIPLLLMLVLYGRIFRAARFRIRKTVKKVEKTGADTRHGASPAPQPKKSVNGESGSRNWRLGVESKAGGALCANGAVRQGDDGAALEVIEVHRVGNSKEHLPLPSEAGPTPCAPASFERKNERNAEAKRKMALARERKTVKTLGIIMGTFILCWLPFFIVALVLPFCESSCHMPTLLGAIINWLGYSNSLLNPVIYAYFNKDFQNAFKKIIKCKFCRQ
assay-info: Intrinsic activity at human recombinant 5-HT1A receptor expressed in HEK293 cells by [S35]GTPgammaS binding assay relative to 5-HT
Type: functional, cell-based
observable: Intrinsic activity
Numbers only.

Example cases with answers are listed next.
[[record]]
smiles_text = "Cc1ccc2c(N3CCN(CCc4ccc5c(c4)NC(=O)CO5)CC3)cccc2n1"
assayed_system = "UniProt P08908"
value = 0.2

[[record]]
smiles_text = "Cc1ccc2c(N3CCN(CCc4cccc(NC(=O)Nc5cccc(F)c5)c4)CC3)cccc2n1"
assayed_system = "UniProt P08908"
value = 0


Count: 4. Required value per item: Intrinsic activity.
1. Cc1ccc2c(N3CCN(CCc4cccc(N5CCOC5=O)c4)CC3)cccc2n1
2. COC(=O)Nc1cccc(CCN2CCN(c3cccc4nc(C)ccc34)CC2)c1
3. CC(=O)Nc1cccc(CCN2CCN(c3cccc4nc(C)ccc34)CC2)c1
4. Cc1ccc2c(N3CCN(CCc4cccc(NC(=O)Nc5ccccc5)c4)CC3)cccc2n1

*A*
0
0
0
0

---

Can you tell me solubility for the items I'm about to list?
assay-info: Solubility of the compound in water
Format: physicochemical

[[record]]
smiles_text = "Cc1ccc2c(N3CCN(CCc4cccc(NS(C)(=O)=O)c4)CC3)cccc2n1.Cl.Cl"
value = "> 10000 µg/mL"

[[record]]
smiles_text = "CC(=O)Nc1cccc(CCN2CCN(c3cccc4nc(C)ccc34)CC2)c1.Cl.Cl"
value = "> 10000 µg/mL"


Now examine the next entry.
*Q* Recorded solubility for Cc1ccc2c(N3CCN(CCc4cccc(N5CCNC5=O)c4)CC3)cccc2n1.Cl.Cl , please?
*A* > 10000 µg/mL

---

assay-info: Solubility of the compound in fed state simulated intestinal fluid at pH 5.5 at 25 degC
Format: physicochemical
observable: solubility (mg/mL)
Give bare numbers, in mg/mL.

[[record]]
smiles_text = "CC(=O)Nc1cccc(CCN2CCN(c3cccc4nc(C)ccc34)CC2)c1.Cl.Cl"
observable = "solubility"
value = 5


For each entry beneath this line, provide reported solubility.
1. Cc1ccc2c(N3CCN(CCc4cccc(NS(C)(=O)=O)c4)CC3)cccc2n1.Cl.Cl
2. Cc1ccc2c(N3CCN(CCc4cccc(N5CCNC5=O)c4)CC3)cccc2n1.Cl.Cl

*A*
1. 0.6
2. 0.5

---

Assign Ki to each entry below.
assayed-system: D(3) dopamine receptor (Homo sapiens, UniProt P35462)
Sequence (P35462 whole entry): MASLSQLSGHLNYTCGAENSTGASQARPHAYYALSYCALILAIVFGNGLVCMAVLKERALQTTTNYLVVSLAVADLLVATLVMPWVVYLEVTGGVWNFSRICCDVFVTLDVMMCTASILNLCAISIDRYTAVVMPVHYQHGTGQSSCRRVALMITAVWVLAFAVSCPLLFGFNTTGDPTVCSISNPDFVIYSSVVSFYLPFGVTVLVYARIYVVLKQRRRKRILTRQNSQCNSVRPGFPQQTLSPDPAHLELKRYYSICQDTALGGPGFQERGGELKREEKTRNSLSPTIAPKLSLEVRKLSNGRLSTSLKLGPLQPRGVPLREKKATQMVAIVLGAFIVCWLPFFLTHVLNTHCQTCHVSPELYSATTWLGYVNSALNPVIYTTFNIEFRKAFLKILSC
assay-info: Binding affinity to human recombinant dopamine D3 receptor by radioligand displacement assay
Answers are plain numbers, in nM.

Some solved cases for reference:
[[record]]
smiles_text = "Cc1ccc2c(N3CCN(CCc4cccc(NS(C)(=O)=O)c4)CC3)cccc2n1"
observable = "Ki"
value = 200

[[record]]
smiles_text = "Cc1ccc2c(N3CCN(CCc4cccc(N5CCOC5=O)c4)CC3)cccc2n1"
observable = "Ki"
value = 200

[[record]]
smiles_text = "Cc1ccc2c(N3CCN(CCc4cccc(-n5cccn5)c4)CC3)cccc2n1"
observable = "Ki"
value = 50.1


Hi team, please reply with Ki for each item in this list.
1. Cc1ccc2c(N3CCN(CCc4cccc(NC(=O)c5ccccc5)c4)CC3)cccc2n1
2. CCNC(=O)Nc1cccc(CCN2CCN(c3cccc4nc(C)ccc34)CC2)c1
3. Cc1ccc2c(N3CCN(CCc4cccc(NC(=O)c5cnccn5)c4)CC3)cccc2n1
4. Cc1ccc2c(N3CCN(CCc4cccc(NC(=O)Nc5ccccc5)c4)CC3)cccc2n1
5. CC(=O)Nc1cccc(CCN2CCN(c3cccc4nc(C)ccc34)CC2)c1
6. COC(=O)Nc1cccc(CCN2CCN(c3cccc4nc(C)ccc34)CC2)c1

*A*
1: 100; 2: 126; 3: 79.4; 4: 31.6; 5: 158; 6: 100

---

Could you please report measured Intrinsic activity for the items listed next?
assayed-system: 5-hydroxytryptamine receptor 1B (Homo sapiens)
Sequence (P28222 whole entry): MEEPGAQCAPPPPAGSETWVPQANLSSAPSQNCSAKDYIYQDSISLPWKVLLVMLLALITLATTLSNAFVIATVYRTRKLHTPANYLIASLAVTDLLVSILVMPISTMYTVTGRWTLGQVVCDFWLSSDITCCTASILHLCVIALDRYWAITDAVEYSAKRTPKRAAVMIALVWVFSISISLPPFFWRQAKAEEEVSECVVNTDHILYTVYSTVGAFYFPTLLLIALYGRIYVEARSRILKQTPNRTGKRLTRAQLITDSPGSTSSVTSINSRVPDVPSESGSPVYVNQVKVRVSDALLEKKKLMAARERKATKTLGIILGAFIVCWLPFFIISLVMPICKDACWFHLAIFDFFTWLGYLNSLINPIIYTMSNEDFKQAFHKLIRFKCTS
assay-info: Intrinsic activity at human recombinant 5-HT1B receptor expressed in CHO cells by [S35]GTPgammaS binding assay relative to 5-HT
Assay type: functional, cell-based
Numbers only.

Reference set, count: 4
[[record]]
smiles_text = "Cc1ccc2c(N3CCN(CCc4cccc(NC(=O)c5scnc5C)c4)CC3)cccc2n1"
observable = "Intrinsic activity"
value = 0

[[record]]
smiles_text = "CC(=O)Nc1cccc(CCN2CCN(c3cccc4nc(C)ccc34)CC2)c1"
observable = "Intrinsic activity"
value = 0

[[record]]
smiles_text = "Cc1ccc2c(N3CCN(CCc4cccc(NS(C)(=O)=O)c4)CC3)cccc2n1"
observable = "Intrinsic activity"
value = 0.1

[[record]]
smiles_text = "Cc1ccc2c(N3CCN(CCc4ccc5c(c4)NC(=O)CO5)CC3)cccc2n1"
observable = "Intrinsic activity"
value = 0.1


Read the next record carefully.
*Q* Which Intrinsic activity is reported for this compound? Cc1ccc2c(N3CCN(CCc4cccc(N5CCOC5=O)c4)CC3)cccc2n1
*A* 0

---

assayed-system: Cytochrome P450 2C19 (Homo sapiens, UniProt P33261)
Sequence (P33261 whole entry): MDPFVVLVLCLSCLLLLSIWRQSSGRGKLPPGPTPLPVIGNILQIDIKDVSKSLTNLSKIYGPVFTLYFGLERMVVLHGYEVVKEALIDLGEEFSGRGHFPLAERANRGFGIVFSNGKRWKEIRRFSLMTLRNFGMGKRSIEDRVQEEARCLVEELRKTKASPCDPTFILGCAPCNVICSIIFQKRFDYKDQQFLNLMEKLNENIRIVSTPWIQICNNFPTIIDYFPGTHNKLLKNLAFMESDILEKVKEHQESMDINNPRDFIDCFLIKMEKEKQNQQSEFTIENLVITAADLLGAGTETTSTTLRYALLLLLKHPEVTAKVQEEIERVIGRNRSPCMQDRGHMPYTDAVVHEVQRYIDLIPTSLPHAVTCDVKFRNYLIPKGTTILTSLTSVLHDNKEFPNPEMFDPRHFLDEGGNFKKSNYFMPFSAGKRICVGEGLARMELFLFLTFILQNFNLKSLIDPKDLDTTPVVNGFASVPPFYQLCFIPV
assay-info: Inhibition of human recombinant CYP219
observable: IC50 (µM)
One number for each entry, in µM.

*Q* What measured IC50 goes with Cc1ccc2c(N3CCN(CCc4cccc(N5CCNC5=O)c4)CC3)cccc2n1 ?
*A* 76

---

assay-info: in vivo
test-settings: cynomolgus monkey, po, 10 mg/kg
observable: bioavailability (%)
One number for each entry, in %.

*Q* // bioavailability lookup, key: Cc1ccc2c(N3CCN(CCc4cccc(N5CCNC5=O)c4)CC3)cccc2n1.Cl.Cl
*A* 63

---

assayed-system: Cytochrome P450 3A4 (Homo sapiens)
Sequence (P08684 whole entry): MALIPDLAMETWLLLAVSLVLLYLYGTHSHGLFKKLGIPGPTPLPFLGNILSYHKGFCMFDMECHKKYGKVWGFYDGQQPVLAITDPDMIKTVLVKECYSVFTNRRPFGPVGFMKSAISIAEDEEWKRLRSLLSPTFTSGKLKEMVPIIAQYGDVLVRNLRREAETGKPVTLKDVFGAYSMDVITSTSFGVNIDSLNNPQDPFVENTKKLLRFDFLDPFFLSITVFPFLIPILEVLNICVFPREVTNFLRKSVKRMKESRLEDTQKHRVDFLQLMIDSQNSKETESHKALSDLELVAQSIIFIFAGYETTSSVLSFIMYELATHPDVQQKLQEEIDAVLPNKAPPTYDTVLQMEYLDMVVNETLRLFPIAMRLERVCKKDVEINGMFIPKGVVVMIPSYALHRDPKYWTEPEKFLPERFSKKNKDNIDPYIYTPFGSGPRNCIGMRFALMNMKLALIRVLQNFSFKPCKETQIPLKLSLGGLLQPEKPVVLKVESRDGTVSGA
assay-info: Inhibition of CYP3A4 in human liver microsomes using midazolam as probe
observable: IC50 (µM)
Answers are plain numbers, in µM.

*Q* Can you share its IC50? I mean this molecule: Cc1ccc2c(N3CCN(CCc4cccc(N5CCNC5=O)c4)CC3)cccc2n1 [GSK163090]
*A* 21

---

assayed-system: Sodium-dependent serotonin transporter (Rattus norvegicus, UniProt P31652)
Sequence (P31652 whole entry): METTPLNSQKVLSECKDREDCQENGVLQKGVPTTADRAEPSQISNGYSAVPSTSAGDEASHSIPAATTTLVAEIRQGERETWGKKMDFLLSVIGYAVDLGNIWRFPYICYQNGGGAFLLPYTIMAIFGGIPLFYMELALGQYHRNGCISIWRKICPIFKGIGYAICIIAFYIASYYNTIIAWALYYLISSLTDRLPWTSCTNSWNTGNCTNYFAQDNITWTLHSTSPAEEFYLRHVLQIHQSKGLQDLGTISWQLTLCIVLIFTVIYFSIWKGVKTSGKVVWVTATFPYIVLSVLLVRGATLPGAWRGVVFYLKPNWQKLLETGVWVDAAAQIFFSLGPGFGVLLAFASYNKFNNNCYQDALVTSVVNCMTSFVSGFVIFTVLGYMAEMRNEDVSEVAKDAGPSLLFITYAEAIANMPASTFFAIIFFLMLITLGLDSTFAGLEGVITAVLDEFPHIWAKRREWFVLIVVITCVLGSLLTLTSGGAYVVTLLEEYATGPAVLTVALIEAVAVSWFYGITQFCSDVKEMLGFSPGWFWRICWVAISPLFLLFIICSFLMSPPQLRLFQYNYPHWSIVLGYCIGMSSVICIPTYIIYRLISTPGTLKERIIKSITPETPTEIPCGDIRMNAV
assay-info: Inhibition of [3H]5-HT uptake at SERT in rat cortical synaptosomes
observable: pKi
Give bare numbers, as −log10 of the molar value.

# count of solved cases: 3
[[record]]
smiles_text = "CCNC(=O)Nc1cccc(CCN2CCN(c3cccc4nc(C)ccc34)CC2)c1"
value = 6.30

[[record]]
smiles_text = "COc1ccccc1C(=O)Nc1cccc(CCN2CCN(c3cccc4nc(C)ccc34)CC2)c1"
value = 6.10

[[record]]
smiles_text = "Cc1ccc2c(N3CCN(CCc4cccc(NC(=O)c5scnc5C)c4)CC3)cccc2n1"
value = 6.30


Please state, for each entry, its recorded pKi.
1. Cc1ccc2c(N3CCN(CCc4cccc(-n5cccn5)c4)CC3)cccc2n1
2. Cc1ccc2c(N3CCN(CCc4cccc(NC(=O)Nc5ccccc5F)c4)CC3)cccc2n1
3. CCC(=O)Nc1cccc(CCN2CCN(c3cccc4nc(C)ccc34)CC2)c1
4. Cc1ccc2c(N3CCN(CCc4cccc(NC(=O)c5ccccc5)c4)CC3)cccc2n1
5. Cc1ccc2c(N3CCN(CCc4cccc(NC(=O)c5ccccc5F)c4)CC3)cccc2n1
6. Cc1ccc2c(N3CCN(CCc4cccc(N5CCOC5=O)c4)CC3)cccc2n1
7. Cc1ccc2c(N3CCN(CCc4cccc(NC(=O)c5ccc(F)cc5)c4)CC3)cccc2n1

*A*
6.50
5.70
5.90
5.70
6.20
6.30
6.10

---

assayed-system: UniProt P28223
Sequence (P28223 whole entry): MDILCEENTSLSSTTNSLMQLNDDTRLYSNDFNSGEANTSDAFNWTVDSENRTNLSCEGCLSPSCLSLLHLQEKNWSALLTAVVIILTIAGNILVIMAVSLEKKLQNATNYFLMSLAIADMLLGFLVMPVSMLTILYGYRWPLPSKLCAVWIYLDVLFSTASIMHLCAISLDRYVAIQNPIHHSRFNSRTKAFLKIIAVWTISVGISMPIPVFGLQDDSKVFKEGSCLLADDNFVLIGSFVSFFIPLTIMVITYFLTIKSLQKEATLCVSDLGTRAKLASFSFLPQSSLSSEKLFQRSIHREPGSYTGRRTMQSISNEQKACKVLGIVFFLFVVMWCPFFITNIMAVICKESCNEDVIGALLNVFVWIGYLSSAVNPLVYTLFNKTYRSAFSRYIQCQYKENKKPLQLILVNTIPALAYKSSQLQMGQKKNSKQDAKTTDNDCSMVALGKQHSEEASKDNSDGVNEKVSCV
assay-info: Binding affinity to human recombinant 5-HT2A receptor by radioligand displacement assay
Could you please report measured pKi for the items listed next?
One number for each entry, as −log10 of the molar value.

Reference set (5 entries):
[[record]]
smiles_text = "Cc1ccc2c(N3CCN(CCc4cccc(-n5cccn5)c4)CC3)cccc2n1"
observable = "pKi"
value = 6.40

[[record]]
smiles_text = "Cc1ccc2c(N3CCN(CCc4cccc(NC(=O)c5cnccn5)c4)CC3)cccc2n1"
observable = "pKi"
value = 6.80

[[record]]
smiles_text = "Cc1ccc2c(N3CCN(CCc4cccc(N5CCOC5=O)c4)CC3)cccc2n1"
observable = "pKi"
value = 6.10

[[record]]
smiles_text = "CC(=O)Nc1cccc(CCN2CCN(c3cccc4nc(C)ccc34)CC2)c1"
observable = "pKi"
value = 6.60

[[record]]
smiles_text = "Cc1ccc2c(N3CCN(CCc4cccc(NC(=O)c5ccccc5)c4)CC3)cccc2n1"
observable = "pKi"
value = 7.10


Look at each molecule and report its pKi.
1. CCNC(=O)Nc1cccc(CCN2CCN(c3cccc4nc(C)ccc34)CC2)c1
2. COC(=O)Nc1cccc(CCN2CCN(c3cccc4nc(C)ccc34)CC2)c1
3. Cc1ccc2c(N3CCN(CCc4cccc(NS(C)(=O)=O)c4)CC3)cccc2n1

*A*
[6.50, 6.70, 6.10]
